Values from patent US4293713A

protocol: Acute toxicity (oral, 7 days observation)
Type: in vivo
measurement.parameters: mouse, in vivo; oral, mice, 7 days; read-out: Acute toxicity, 50% lethal dose, LD50 (values with Δ marks)
attribute.measured: LD50 at 168 h (mg/kg)
Please reply with the bare figure in mg/kg and do not write the unit itself.

Please review the following examples before continuing.
IN: So what's the measured LD50 at 168 h for this one? CN(C)C(=O)N(C)C(=O)Nc1c(Cl)cccc1Cl
OUT: 1100

IN: So what's the measured LD50 at 168 h for this one? CN(C)C(=O)N(C)C(=O)Nc1ccccc1
OUT: 1710

IN: So what's the measured LD50 at 168 h for this one? Cc1cccc(C)c1NC(=O)N(C)C(=O)N(C)C
OUT: 595

IN: So what's the measured LD50 at 168 h for this one? CN(C)C(=O)N(C)C(=O)Nc1cccc(Cl)c1
OUT: 1480

IN: So what's the measured LD50 at 168 h for this one? Cc1ccccc1NC(=O)N(C)C(=O)N(C)C
OUT: 1000

IN: So what's the measured LD50 at 168 h for this one? CN(C)C(=O)N(C)C(=O)Nc1ccc(F)cc1
OUT: 930

IN: So what's the measured LD50 at 168 h for this one? CCN(C)C(=O)N(C)C(=O)Nc1ccccc1
OUT: 1290

IN: So what's the measured LD50 at 168 h for this one? COc1ccc(NC(=O)N(C)C(=O)N(C)C)cc1
OUT: 1800

IN: So what's the measured LD50 at 168 h for this one? CN(C)C(=O)N(C)C(=O)Nc1ccc(Cl)cc1
OUT: 1200

Please examine the following record next.
IN: So what's the measured LD50 at 168 h for this one? CN(C)C(=O)N(C)C(=O)Nc1ccc(Br)cc1
OUT: 1350

----------
Tested on: ddy strain of male mice
protocol: Acute toxicity (oral, 7 days observation)
Type: in vivo
measurement.parameters: 1000 mg/kg, oral, mice, 7 days
attribute.measured: Acute toxicity, death number of mice/number of mice tested

Please review the following examples before continuing.
IN: So what's the measured Acute toxicity, death number of mice/number of mice tested for this one? CCCN(C)C(=O)N(C)C(=O)Nc1ccccc1 [Compound No. 34, 1,3-dimethyl-1-propyl-5-phenylbiuret]
OUT: 1/4

IN: So what's the measured Acute toxicity, death number of mice/number of mice tested for this one? CC(=O)c1ccc(NC(=O)N(C)C(=O)N(C)C)cc1 [compound 27, 1,1,3-Trimethyl-5-(4-acetylphenyl)biuret]
OUT: 4/4

IN: So what's the measured Acute toxicity, death number of mice/number of mice tested for this one? CN(C)C(=O)N(C)C(=O)Nc1c(F)c(F)cc(F)c1F [compound 4]
OUT: 4/4

***
IN: So what's the measured Acute toxicity, death number of mice/number of mice tested for this one? CN(C)C(=O)N(C)C(=O)Nc1ccc(Cl)cc1Cl [compound 8]
OUT: 0/4

IN: So what's the measured Acute toxicity, death number of mice/number of mice tested for this one? CSc1ccc(NC(=O)N(C)C(=O)N(C)C)cc1 [compound 28]
OUT: 0/4

IN: So what's the measured Acute toxicity, death number of mice/number of mice tested for this one? CCCCN(C(=O)Nc1ccccc1)C(=O)N(C)C [compound 32, 1,1-Dimethyl-3-n-butyl-5-phenylbiuret]
OUT: 0/4

IN: So what's the measured Acute toxicity, death number of mice/number of mice tested for this one? COc1ccccc1NC(=O)N(C)C(=O)N(C)C [compound 16]
OUT: 0/4

IN: So what's the measured Acute toxicity, death number of mice/number of mice tested for this one? CN(C)C(=O)N(C)C(=O)Nc1ccccc1F [Compound No. 2, 1,1,3-Trimethyl-5-(2-fluorophenyl)biuret]
OUT: 1/4

IN: So what's the measured Acute toxicity, death number of mice/number of mice tested for this one? Cc1c(Cl)cccc1NC(=O)N(C)C(=O)N(C)C [compound 26]
OUT: 1/4

IN: So what's the measured Acute toxicity, death number of mice/number of mice tested for this one? CCCCN(C)C(=O)N(C)C(=O)Nc1ccccc1 [compound 35, 1-n-Butyl-1,3-dimethyl-5-phenylbiuret]
OUT: 0/4

IN: So what's the measured Acute toxicity, death number of mice/number of mice tested for this one? COc1ccc(NC(=O)N(C)C(=O)N(C)C)cc1OC [compound 18]
OUT: 0/4

IN: So what's the measured Acute toxicity, death number of mice/number of mice tested for this one? Cc1cccc(NC(=O)N(C)C(=O)N(C)C)c1C [compound 23]
OUT: 1/4

IN: So what's the measured Acute toxicity, death number of mice/number of mice tested for this one? CN(C)C(=O)N(C)C(=O)Nc1cccc(C(F)(F)F)c1 [compound 13]
OUT: 0/4

IN: So what's the measured Acute toxicity, death number of mice/number of mice tested for this one? COc1cc(NC(=O)N(C)C(=O)N(C)C)cc(OC)c1OC [Compound No. 19]
OUT: 2/4

IN: So what's the measured Acute toxicity, death number of mice/number of mice tested for this one? CCN(C(=O)Nc1ccccc1)C(=O)N(C)C [compound 30, 1,1-Dimethyl-3-ethyl-5-phenylbiuret]
OUT: 0/4

IN: So what's the measured Acute toxicity, death number of mice/number of mice tested for this one? CN(C)C(=O)N(C)C(=O)Nc1ccccc1C(F)(F)F [compound 12]
OUT: 1/4

IN: So what's the measured Acute toxicity, death number of mice/number of mice tested for this one? CN(C)C(=O)N(C)C(=O)Nc1ccc(Cl)c(Cl)c1 [compound 10]
OUT: 1/4

----------
Test system: ddy strain of male mice
protocol: Analgesic activity, Haffner method
Type: in vivo, mouse (ddy strain
measurement.parameters: 100 mg/kg oral, with threshold morphine hydrochloride s.c.
Entries and their Analgesic activity, Haffner method, inhibitory ratio values follow.
Please reply with the bare figure in % and do not write the unit itself.

Please review the following examples before continuing.
IN: So what's the measured Analgesic activity, Haffner method, inhibitory ratio for this one? CCCCN(C)C(=O)N(C)C(=O)Nc1ccccc1 [compound 35, 1-n-Butyl-1,3-dimethyl-5-phenylbiuret]
OUT: 25

IN: So what's the measured Analgesic activity, Haffner method, inhibitory ratio for this one? CN(C)C(=O)N(C)C(=O)Nc1ccccc1F [Compound No. 2, 1,1,3-Trimethyl-5-(2-fluorophenyl)biuret]
OUT: 75

IN: So what's the measured Analgesic activity, Haffner method, inhibitory ratio for this one? CN(C)C(=O)N(C)C(=O)Nc1ccc([N+](=O)[O-])cc1 [compound 15, 1,1,3-Trimethyl-5-(4-nitrophenyl)biuret]
OUT: 50

IN: So what's the measured Analgesic activity, Haffner method, inhibitory ratio for this one? COc1ccc(NC(=O)N(C)C(=O)N(C)C)cc1OC [compound 18]
OUT: 62.5

IN: So what's the measured Analgesic activity, Haffner method, inhibitory ratio for this one? CN(C)C(=O)N(C)C(=O)Nc1ccc(Cl)c(Cl)c1 [compound 10]
OUT: 62.5

***
IN: So what's the measured Analgesic activity, Haffner method, inhibitory ratio for this one? CN(C)C(=O)N(C)C(=O)Nc1ccccc1Cl [compound 5, 1,1,3-Trimethyl-5-(2-chlorophenyl)biuret]
OUT: 37.5

IN: So what's the measured Analgesic activity, Haffner method, inhibitory ratio for this one? Cc1c(Cl)cccc1NC(=O)N(C)C(=O)N(C)C [compound 26]
OUT: 25

----------
Test system: ddy strain of male mice
protocol: Analgesic activity, Haffner method
Type: in vivo, mouse (ddy strain
measurement.parameters: 100 mg/kg oral, with threshold morphine hydrochloride s.c.
Entries and their Analgesic activity, Haffner method, inhibitory ratio values follow.
Respond with a number, then the unit of measure.

IN: Identify the measured Analgesic activity, Haffner method, inhibitory ratio of CN(C)C(=O)N(C)C(=O)Nc1c(Cl)cccc1Cl for ddy strain of male mice.
OUT: 50%

IN: Identify the measured Analgesic activity, Haffner method, inhibitory ratio of CN(C)C(=O)N(C)C(=O)Nc1ccc(N(C)C)cc1 for ddy strain of male mice.
OUT: 50%

IN: Identify the measured Analgesic activity, Haffner method, inhibitory ratio of COc1cc(NC(=O)N(C)C(=O)N(C)C)cc(OC)c1OC for ddy strain of male mice.
OUT: 62.5%

IN: Identify the measured Analgesic activity, Haffner method, inhibitory ratio of Cc1cccc(NC(=O)N(C)C(=O)N(C)C)c1C for ddy strain of male mice.
OUT: 25%

IN: Identify the measured Analgesic activity, Haffner method, inhibitory ratio of CC(=O)c1ccc(NC(=O)N(C)C(=O)N(C)C)cc1 for ddy strain of male mice.
OUT: 37.5%

IN: Identify the measured Analgesic activity, Haffner method, inhibitory ratio of CN(C)C(=O)N(C)C(=O)Nc1ccc(F)cc1 for ddy strain of male mice.
OUT: 62.5%

IN: Identify the measured Analgesic activity, Haffner method, inhibitory ratio of CN(C)C(=O)N(C)C(=O)Nc1c(F)c(F)cc(F)c1F for ddy strain of male mice.
OUT: 50%

IN: Identify the measured Analgesic activity, Haffner method, inhibitory ratio of CN(C)C(=O)N(C)C(=O)Nc1ccc(Cl)cc1Cl for ddy strain of male mice.
OUT: 75%

***
IN: Identify the measured Analgesic activity, Haffner method, inhibitory ratio of CN(C)C(=O)N(C)C(=O)Nc1ccccc1C(F)(F)F for ddy strain of male mice.
OUT: 37.5%

IN: Identify the measured Analgesic activity, Haffner method, inhibitory ratio of Cc1cccc(C)c1NC(=O)N(C)C(=O)N(C)C for ddy strain of male mice.
OUT: 37.5%

IN: Identify the measured Analgesic activity, Haffner method, inhibitory ratio of COc1ccccc1NC(=O)N(C)C(=O)N(C)C for ddy strain of male mice.
OUT: 25%

IN: Identify the measured Analgesic activity, Haffner method, inhibitory ratio of CCCN(C)C(=O)N(C)C(=O)Nc1ccccc1 for ddy strain of male mice.
OUT: 37.5%
